Data provenance is patent US10597399B2.

- System: SW-620 (colon cancer)
- experiment-description: Proliferation of different tumor cells: SW-620
- test-settings: Homo sapiens
pIC50: −log10 of the molar value.
Examples of compounds with documented pIC50 follow.
outcome-measure: pIC50

> print(dat)
                                   compound      target.under.test  outcome.measure  measured.number
1  O=C(c1cc(Cc2n[nH]c(=O)c3ccccc23)ccc1F)N1CCN(C(=O)C2CC2)CC1 [AZD2281, olaparib, reference compound]  SW-620 (colon cancer)            pIC50             5.23
2  CC1CN(C(=O)c2cc(Cc3n[nH]c(=O)c4ccccc34)ccc2F)Cc2nnc(-c3ccccn3)n21 (centres unmarked)  SW-620 (colon cancer)            pIC50             7.35
